Assignment: determine reported pKi for the given molecules.
- studySystem: CB1 cannabinoid receptor (Rattus norvegicus)
- Construct: membranes were prepared from rat forebrain membranes; from tissue; host or cells: rat forebrain
- Sequence (P20272 whole entry): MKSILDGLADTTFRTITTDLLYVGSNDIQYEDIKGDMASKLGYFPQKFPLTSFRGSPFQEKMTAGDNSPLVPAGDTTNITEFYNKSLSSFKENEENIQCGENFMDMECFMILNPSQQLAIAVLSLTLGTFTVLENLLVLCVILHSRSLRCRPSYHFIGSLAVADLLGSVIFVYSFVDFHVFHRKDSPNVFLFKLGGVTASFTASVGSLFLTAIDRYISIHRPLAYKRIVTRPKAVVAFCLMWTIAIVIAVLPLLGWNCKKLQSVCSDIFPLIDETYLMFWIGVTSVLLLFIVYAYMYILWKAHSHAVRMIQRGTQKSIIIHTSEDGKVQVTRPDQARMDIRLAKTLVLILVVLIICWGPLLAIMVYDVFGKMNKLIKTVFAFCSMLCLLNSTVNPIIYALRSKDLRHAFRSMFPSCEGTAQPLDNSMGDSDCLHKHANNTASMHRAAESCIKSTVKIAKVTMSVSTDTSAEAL
- assayProcedure: CB1 receptor binding, rat forebrain membranes, [3H] CP-55,940 displacement
- assaySetup: rat forebrain membranes, 0.8 nM [3H] CP-55,940; read-out: affinities Ki CB1
Answers are plain numbers, as −log10 of the molar value.

Example cases with answers are listed next.
molecule	pKi
Cc1c(C(=O)N(C)C2CCCCC2)nn(-c2ccc(Cl)cc2Cl)c1-c1ccc(-c2nnnn2C)cc1 [Compound 2-14]	5.90
O=C(NN1CCCCC1)c1nn(-c2ccc(-c3cccnc3)cc2Cl)c(-c2ccc(-c3cccnc3)cc2)c1CO [Compound 3-19]	6.84
Cc1c(C(=O)N(C)C2CCCCC2)nn(-c2ccc(Cl)cc2Cl)c1-c1ccc(C#N)cc1 [Compound 3-15]	7.30
COCc1c(C(=O)NC23CC4CC(CC(C4)C2)C3)nn(-c2ccc(Cl)cc2Cl)c1-c1ccc(Br)cc1 [Compound 1-7]	7.28
Cc1c(C(O)C(O)c2ccccc2)nn(-c2ccc(Cl)cc2Cl)c1-c1ccc(Br)cc1 (stereo not drawn) [Compound 1-28]	5.97
Cn1nnnc1-c1ccc(-c2c(CO)c(C(=O)NN3CCCCC3)nn2-c2ccc(Cl)cc2Cl)cc1 [Compound 2-5]	6.69
O=C(NN1CCCCC1)c1nn(-c2ccc(Cl)cc2Cl)c(-c2ccc(-c3cccnc3)cc2)c1CO [Compound 1-5]	8.24
CCOCc1c(C(=O)NN2CCCCC2)nn(-c2ccc(Cl)cc2Cl)c1-c1ccc(Br)cc1 [Compound 1-12]	7.34
Cc1c(NC(=O)NC23CC4CC(CC(C4)C2)C3)nn(-c2ccc(Cl)cc2Cl)c1-c1ccc(Br)cc1 [Compound 3-12]	6.59
Cn1nnc(-c2ccc(-c3c(CO)c(C(=O)NC4CCCCC4)nn3-c3ccc(Cl)cc3Cl)cc2)n1 [Compound 2-12]	7.43

Quick one: give me pKi for each item below, same order please.
1. Cc1c(C(=O)NN2CCCCC2)nn(-c2ccc(Cl)cc2Cl)c1-c1ccc(C(N)=S)cc1 [Compound 3-25]
2. N#Cc1ccc(-c2c(CO)c(C(=O)NN3CCCCC3)nn2-c2ccc(Cl)cc2Cl)cc1 [Compound 3-22]

Response line:
1: 7.07; 2: 7.19

Each recorded value in this set is attributed to patent US8084467B2.
